- assay-target: MsEH (Mus musculus, UniProt P34914)
- Sequence (P34914 1-554): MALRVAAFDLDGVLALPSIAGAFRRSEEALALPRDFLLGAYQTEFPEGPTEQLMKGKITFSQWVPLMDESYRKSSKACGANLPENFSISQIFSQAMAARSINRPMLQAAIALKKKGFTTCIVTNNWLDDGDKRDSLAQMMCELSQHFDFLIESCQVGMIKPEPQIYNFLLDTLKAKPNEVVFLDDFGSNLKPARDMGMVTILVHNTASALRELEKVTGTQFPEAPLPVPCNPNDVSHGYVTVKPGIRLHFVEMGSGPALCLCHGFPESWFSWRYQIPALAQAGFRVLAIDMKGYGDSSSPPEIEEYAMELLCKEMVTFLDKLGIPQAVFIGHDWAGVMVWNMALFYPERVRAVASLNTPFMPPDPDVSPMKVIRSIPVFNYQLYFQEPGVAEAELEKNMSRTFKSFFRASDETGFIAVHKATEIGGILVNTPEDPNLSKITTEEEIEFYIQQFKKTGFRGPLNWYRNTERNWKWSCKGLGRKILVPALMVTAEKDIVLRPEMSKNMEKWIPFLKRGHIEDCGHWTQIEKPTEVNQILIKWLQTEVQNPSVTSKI
- test-name: sEH inhibitory activity, PHOME fluorescence assay (MsEH)
- Format: biochemical
recorded-metric: pIC50
// field semantics: pIC50 = negative decimal log of concentration (mol/L)

What value of pIC50 has been reported for the following compound? CCN(CC)C(=O)C1CCN(C(=O)c2ccc(NC(=O)NC34CC5CC(C)(CC(C)(C5)C3)C4)c(F)c2)CC1 [CC-111]
9.28

What value of pIC50 has been reported for the following compound? CC12CC3CC(C)(C1)CC(NC(=O)Nc1ccc(CN4CCC[C@H](C(=O)N5CCCN(C(=O)C6CC6)CC5)C4)cc1F)(C3)C2 [CL-204]
9.10

What value of pIC50 has been reported for the following compound? CC12CC3CC(C)(C1)CC(NC(=O)Nc1ccc(CN4CCC(C(=O)NC(CO)CO)CC4)cc1F)(C3)C2 [CL-119]
8.65

What value of pIC50 has been reported for the following compound? CC(O)CNC(=O)C1CCN(C(=O)c2ccc(NC(=O)NC34CC5CC(C)(CC(C)(C5)C3)C4)c(F)c2)CC1 (stereo not drawn) [CC-115]
9.74

What value of pIC50 has been reported for the following compound? CC12CC3CC(C)(C1)CC(NC(=O)Nc1ccc(CN4CCCN(C(=O)CC5CCN(CC(O)CO)CC5)CC4)cc1F)(C3)C2 (stereo not drawn) [GL-22]
8.90

What value of pIC50 has been reported for the following compound? CN(C)C(=O)[C@H]1CCCN(Cc2ccc(NC(=O)NC34CC5CC(C)(CC(C)(C5)C3)C4)c(F)c2)C1 [CL-105]
9.92

What value of pIC50 has been reported for the following compound? CC12CC3CC(C)(C1)CC(NC(=O)Nc1ccc(CN4CCC[C@H](C(=O)N(CCO)CCO)C4)cc1F)(C3)C2 [CL-107]
9.54

What value of pIC50 has been reported for the following compound? CC(O)CNC(=O)C1CCN(Cc2ccc(NC(=O)NC34CC5CC(C)(CC(C)(C5)C3)C4)c(F)c2)CC1 (stereo not drawn) [CL-120]
9.33

What value of pIC50 has been reported for the following compound? CC(=O)N1CCCN(C(=O)[C@H]2CCCN(C(=O)c3ccc(NC(=O)NC45CC6CC(C)(CC(C)(C6)C4)C5)c(F)c3)C2)CC1 [GL-101]
9.59
